# assay: Cytotoxicity against human HaCaT cells assessed as reduction in cell viability at 64 uM incubated for 24 hrs by MTT assay relative to control
# Type: cell-based
# measurement.context: read-out: INH
Would you kindly list cytotoxicity at 24 h, 64 µM for each of these compounds?
Numbers only, in %.

Field: example entries. Status: answers known.
C[C@]12C=C[C@@]3(CC[C@@H]4[C@@](C)(COC(=O)C(=O)O)CCC[C@@]4(C)[C@@H]3CC1)C2 | 36
C[C@]12C=C[C@@]3(CC[C@@H]4[C@@](C)(COC(=O)CCC(=O)O)CCC[C@@]4(C)[C@@H]3CC1)C2 | 20

Could you share which cytotoxicity at 24 h, 64 µM value was measured for "C[C@]12C=C[C@@]3(CC[C@@H]4[C@@](C)(COC(=O)CC(=O)O)CCC[C@@]4(C)[C@@H]3CC1)C2" ?
14
